target or test system: T1, full-length untagged human GPNMB expressed on cells (human, UniProt Q14956 23-572)
T1 sequence: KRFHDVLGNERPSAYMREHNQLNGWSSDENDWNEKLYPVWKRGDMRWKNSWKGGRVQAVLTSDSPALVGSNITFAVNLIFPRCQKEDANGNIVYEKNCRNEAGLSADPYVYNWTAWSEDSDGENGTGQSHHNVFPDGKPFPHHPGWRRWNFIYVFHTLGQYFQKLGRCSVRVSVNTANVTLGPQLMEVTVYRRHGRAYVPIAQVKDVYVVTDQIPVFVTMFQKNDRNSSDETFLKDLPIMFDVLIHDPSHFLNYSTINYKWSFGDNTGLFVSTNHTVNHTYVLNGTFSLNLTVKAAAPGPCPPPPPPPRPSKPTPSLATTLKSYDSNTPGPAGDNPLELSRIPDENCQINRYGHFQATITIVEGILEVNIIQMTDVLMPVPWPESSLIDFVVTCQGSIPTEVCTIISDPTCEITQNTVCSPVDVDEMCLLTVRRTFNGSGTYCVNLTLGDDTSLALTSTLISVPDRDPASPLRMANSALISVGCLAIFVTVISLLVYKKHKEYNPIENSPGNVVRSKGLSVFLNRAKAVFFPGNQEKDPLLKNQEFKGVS
assay explanation: cell-based or functional assay
metric: Fold Decrease Lyso Tracker (max response at 1 µg/ml) (fold)
Numbers only, in fold.

Please review the entries below; each comes with its answer.
anti-GPNMB antibody GPN-86 (antibody, V domains shown) VH: QVQLQESGPGLVKPSETLSLTCTVSGISITTGNYRWSWIRQPPGKGLEWIGYIDYSGTITYNPSLKSRVTITRDTSKNQFSLELSSVTAADTAVYYCARDLTHWYFDVWGQGTLVTVSS VL: DIVMTQSPDSLAVSLGERATINCKSSRSVDYYGIGFLNWYQQKPGQPPKLLIYATSKQGSGVPDRFSGSGSGTDFTLTISSLQAEDVAVYYCQQQKEVPPTFGGGTKVEIK | 0.731
anti-GPNMB antibody GPN-83 (antibody, V domains shown) VH: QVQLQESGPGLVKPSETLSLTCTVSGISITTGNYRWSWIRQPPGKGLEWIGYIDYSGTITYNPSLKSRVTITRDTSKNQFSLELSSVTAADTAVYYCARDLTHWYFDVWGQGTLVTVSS VL: DIVMTQSPDSLAVSLGERATINCKSSRSVDYYGIGFVNWYQQKPGQPPKLLIYATSIQGSGVPDRFSGSGSGTDFTLTISSLQAEDVAVYYCQQQKEVPPTFGGGTKVEIK | 0.755

I have 2 binders here; please give me Fold Decrease Lyso Tracker (max response at 1 µg/ml) for each one.
1. anti-GPNMB antibody GPN-87 (antibody, V domains shown) VH: QVQLQESGPGLVKPSETLSLTCTVSGISITTGNYRWSWIRQPPGKGLEWIGYIDYSGTITYNPSLKSRVTITRDTSKNQFSLELSSVTAADTAVYYCARDLTHWYYDVWGQGTLVTVSS VL: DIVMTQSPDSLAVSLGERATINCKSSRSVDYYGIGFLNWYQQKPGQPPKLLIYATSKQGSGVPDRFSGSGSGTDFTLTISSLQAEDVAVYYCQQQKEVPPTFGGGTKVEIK
2. anti-GPNMB antibody GPN-82 (antibody, V domains shown) VH: QVQLQESGPGLVKPSETLSLTCTVSGISITTGNYRWSWIRQPPGKGLEWIGYIYYSGTIIYNPSLKSRVTITRDTSKNQFSLELSSVTAADTAVYYCARDLTHWYFDVWGQGTLVTVSS VL: DIVMTQSPDSLAVSLGERATINCKSSRSVDYYGIGFLNWYQQKPGQPPKLLIYATSTQGSGVPDRFSGSGSGTDFTLTISSLQAEDVAVYYCQQQKEVPPTFGGGTKVEIK

A.
1: 0.716; 2: 0.569
